# Tested on: rat CYP2B1, gene 24300
# assay.comment: NVS_ADME_rCYP2B1: NovaScreen (NVS) CYP450-related Enzyme Activity (ADME) Assay for rat CYP2B1 (AID 2283117)
The source made the active and inactive calls. The calls were made as follows: active = hit-call score of the fitted dose curve at least 0.9, where 1 is the maximum; inconclusive = response in the unintended direction; inactive = score below 0.9.
Outcome field: choose from active, inactive

Outcome logged for CC1COC(Cn2cncn2)(c2ccc(Oc3ccc(Cl)cc3)cc2Cl)O1 (stereo not drawn) in this assay:
active

***
Given CCON=C(CC)C1=C(O)CC(c2c(C)cc(C)cc2C)CC1=O (stereo not drawn) , state the outcome it received in this test.
inactive

Assay outcome for N#CC(CCc1ccc(Cl)cc1)(Cn1cncn1)c1ccccc1 (stereo not drawn) : what was it?
active

###

# assay.comment: APR_HepG2_MitoMembPot_72hr: Apredica 72-hour HepG2 Assay for Mitochondrial Membrane Potential (AID 2282917)
# condition.details: imaging, actives raise or lower the signal
Calls of active or inactive are those of the source. The calls were made as follows: active = hit-call score of the fitted dose curve at least 0.9, where 1 is the maximum; inactive = score below 0.9.
assay.readout: outcome

Sample N#Cc1nn(-c2c(Cl)cc(C(F)(F)F)cc2Cl)c(N)c1S(=O)C(F)(F)F (stereo not drawn) — what was its outcome?
inactive

# lookup: outcome of CCCCNC(=O)n1c(NC(=O)OC)nc2ccccc21
inactive

For the compound CC(C)Oc1cc(-n2nc(C(C)(C)C)oc2=O)c(Cl)cc1Cl , what outcome is on record?
inactive

###

# Read-out: growth arrest and DNA damage 45 (GADD45A), GADD45A (gene 1647)
# assay.comment: LTEA_HepaRG_GADD45A: Life Technologies and Expression Analysis (LTEA) Assay for growth arrest and DNA damage 45 (GADD45A) using HepaRG (AID 2283458)
# condition.details: mRNA level, 48 h; actives raise or lower the signal
Calls of active or inactive are those of the source. The calls were made as follows: active = hit-call score of the fitted dose curve at least 0.9, where 1 is the maximum; inactive = score below 0.9.
assay.readout: outcome

I have this compound here, C=CC1(C)OC(=O)N(c2cc(Cl)cc(Cl)c2)C1=O (stereo not drawn) , and I need its recorded outcome.
inactive

Entry under review: COc1cnc(OC)n2nc(NS(=O)(=O)c3c(OCC(F)F)cccc3C(F)(F)F)nc12 . Reported outcome?
inactive

Need outcome of Oc1ccccc1-c1ccccc1 , thanks.
inactive

###

# Read-out: CYP3A5 (gene 1577)
# assay.comment: LTEA_HepaRG_CYP3A5: Life Technologies and Expression Analysis (LTEA) Assay for CYP3A5 using HepaRG (AID 2283493)
# condition.details: mRNA level, 48 h; actives raise or lower the signal
Active and inactive are the calls of the source. The calls were made as follows: active = hit-call score of the fitted dose curve at least 0.9, where 1 is the maximum; inactive = score below 0.9.
assay.readout: outcome

What value of outcome has been reported for the following compound? CCOC(=O)C(Cl)Cc1cc(-n2nc(C)n(C(F)F)c2=O)c(F)cc1Cl (stereo not drawn)
inactive

Entry CCCCC(CC)COC(=O)c1ccccc1C(=O)OCC(CC)CCCC (stereo not drawn) has what outcome?
inactive

Endpoint output: outcome of C=CCC1=C(C)[C@@H](OC(=O)[C@@H]2[C@@H](C=C(C)C)C2(C)C)CC1=O . Value?
inactive

###

# Read-out: Glutamate-cysteine ligase regulatory (GCLM), GCLM (gene 2730)
# assay.comment: LTEA_HepaRG_GCLM: Life Technologies and Expression Analysis (LTEA) Assay for Glutamate-cysteine ligase regulatory (GCLM) using HepaRG (AID 2283500)
# condition.details: mRNA level, 48 h; actives raise or lower the signal
Activity calls are given as the source filed them. The calls were made as follows: active = hit-call score of the fitted dose curve at least 0.9, where 1 is the maximum; inactive = score below 0.9.
assay.readout: outcome

I am curious: what outcome value has been reported for C=CC1(C)OC(=O)N(c2cc(Cl)cc(Cl)c2)C1=O (stereo not drawn) ?
inactive

Fill blank: measured outcome of the molecule CCCCOC(=O)c1ccccc1C(=O)OCCCC is ____.
inactive

What does the record list as outcome for C=CCC1=C(C)C(OC(=O)C2C(C=C(C)C)C2(C)C)CC1=O (stereo not drawn) ?
inactive

###

# assay.comment: BSK_CASM3C_Proliferation: Cell Proliferation Assessment in the BioMAP Diversity Plus: CASM3C Assay (AID 2283047);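 also: sulforhodamine B total protein stain as relative cell number at 560 nm; sub-confluent cells exposed 48 h before staining; fitted both ways against DMSO so gain or loss of cell number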
# condition.details: primary human coronary artery smooth muscle cells
Active and inactive are the calls of the source. The calls were made as follows: active = hit-call score of the fitted dose curve at least 0.9, where 1 is the maximum; inactive = score below 0.9.
assay.readout: AC50

Reported AC50, compound CNC(=O)ON=CC(C)(C)SC : ____
inactive

What value of measured AC50 is listed for Cc1cc(Cl)ccc1OCC(=O)O ?
inactive

AC50 for COc1cnc(OC)n2nc(NS(=O)(=O)c3c(OCC(F)F)cccc3C(F)(F)F)nc12 ?
inactive

Quick one: AC50 for CC(Oc1ccc(Cl)cc1Cl)C(=O)O (configuration not stated) ?
inactive

May I ask what AC50 has been recorded for COc1nc(C)nc(NC(=O)NS(=O)(=O)c2ccccc2CCC(F)(F)F)n1 ?
inactive

Required: AC50, one value per compound below.
1. CC1COC(Cn2cncn2)(c2ccc(Oc3ccc(Cl)cc3)cc2Cl)O1 (configuration not stated)
2. CCc1nn(C)c(C(=O)NCc2ccc(C(C)(C)C)cc2)c1Cl
3. Fc1ccc(Oc2ccnc3cc(Cl)cc(Cl)c23)cc1
4. COC(=O)N(OC)c1ccccc1COc1ccn(-c2ccc(Cl)cc2)n1
5. COc1nc(NC(C)C)nc(NC(C)C)n1

["27.8 µM (active)", "14.4 µM (active)", "24.4 µM (active)", "6.45 µM (active)", "inactive"]

Please give AC50, item by item, for the list that follows.
1. C=CC1(C)OC(=O)N(c2cc(Cl)cc(Cl)c2)C1=O (configuration not stated)
2. CS/C(C)=N/OC(=O)N(C)SN(C)C(=O)O/N=C(\C)SC

inactive
6.19 µM (active)

###

# assay.comment: APR_HepG2_MitoMembPot_1hr: Apredica 1-hour HepG2 Assay for Mitochondrial Membrane Potential (AID 2282675)
# condition.details: imaging, actives raise or lower the signal
Calls of active or inactive are those of the source. The calls were made as follows: active = hit-call score of the fitted dose curve at least 0.9, where 1 is the maximum; inactive = score below 0.9.
assay.readout: AC50

Worked cases, AC50 given:
Need AC50 of COC(=O)N(OC)c1ccccc1COc1ccn(-c2ccc(Cl)cc2)n1 , thanks.
0.0634 µM (active)

Fill blank: measured AC50 of the molecule C=CCC1=C(C)C(OC(=O)C2C(C=C(C)C)C2(C)C)CC1=O (configuration not stated) is ____.
100 µM (active)

Consider the molecule C=CCC1=C(C)[C@@H](OC(=O)[C@@H]2[C@@H](C=C(C)C)C2(C)C)CC1=O and give its measured AC50.
109 µM (active)

# lookup: AC50 of Cc1cc(Cl)ccc1OCC(=O)O
inactive

# lookup: AC50 of CCOc1cc(Oc2ccc(C(F)(F)F)cc2Cl)ccc1[N+](=O)[O-]
inactive

For the molecule shown here, CCCC1COC(Cn2cncn2)(c2ccc(Cl)cc2Cl)O1 (configuration not stated) , give the reported AC50.
inactive

More entries:
Could you share which AC50 value was measured for O=C(Nc1ccccc1)Nc1ccnc(Cl)c1 ?
99.5 µM (active)

###

# Read-out: Transforming Growth Factor (TGFB1), TGFB1 (gene 7040)
# assay.comment: LTEA_HepaRG_TGFB1: Life Technologies and Expression Analysis (LTEA) Assay for Transforming Growth Factor (TGFB1) Transporter using HepaRG (AID 2283533)
# condition.details: mRNA level, 48 h; actives raise or lower the signal
Calls of active or inactive are those of the source. Rule for the calls: active = hit-call score of the fitted dose curve at least 0.9, where 1 is the maximum; inactive = score below 0.9.
Classes to choose from: Y for active, N for inactive

Status in this test for OC(c1ccc(Cl)cc1)(c1cncnc1)c1ccccc1Cl (centres undefined) ?
Y

###

# assay.comment: CEETOX_H295R_CORTISOL: CeeTox H295R High-throughput Steroidogenesis Assay for Cortisol (AID 2283438);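 also: cortisol secreted into medium quantified by LC-MS/MS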
# condition.details: actives raise or lower the signal
Active and inactive are the calls of the source. How the source made its calls: active means hit-call score of the fitted dose curve at least 0.9, where 1 is the maximum; inactive means score below 0.9.
Response enum: Yes for active, No for inactive

Previously resolved entries follow.
Please share the test call associated with CCON=C(CC)C1=C(O)CC(c2c(C)cc(C)cc2C)CC1=O (stereo not given) .
No

// param item: Cc1cc(Cl)ccc1OCC(=O)O ; yields the recorded call
No

Would you mind telling me which call this test gave CC1COC(Cn2cncn2)(c2ccc(Oc3ccc(Cl)cc3)cc2Cl)O1 (stereo not given) ?
Yes

// outcome(item) with item = CCCCNC(=O)n1c(NC(=O)OC)nc2ccccc21
No

Then this compound:
Could you kindly confirm the outcome this assay logged for N#CC(CCc1ccc(Cl)cc1)(Cn1cncn1)c1ccccc1 (stereo not given) ?
Yes

###

# Read-out: Macrophage colony-stimulating factor (MCSF), CSF1 (gene 1435)
# assay.comment: BSK_CASM3C_MCSF: BioMAP Diversity Plus: CASM3C Assay for Macrophage colony-stimulating factor (MCSF) Biomarker Activity (AID 2283044);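 also: M-CSF protein amount quantified by ELISA after 24 h exposure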
# condition.details: primary human coronary artery smooth muscle cells; actives raise or lower the signal
The source made the active and inactive calls. Rule for the calls: active = hit-call score of the fitted dose curve at least 0.9, where 1 is the maximum; inactive = score below 0.9.
Please answer using one outcome listed in yes for active, no for inactive

Query: recorded result category for Cc1ccc(-c2c(Cl)nc(C#N)n2S(=O)(=O)N(C)C)cc1 in this test
no

GET /call?item= COP(=S)(OC)Oc1nc(Cl)c(Cl)cc1Cl returns the recorded outcome of this test.
no

What classification did CCOC(=O)CC(SP(=S)(OC)OC)C(=O)OCC (stereo unspecified) end up with in this test?
no

What outcome does the record of this test show for CCON=C(CC)C1=C(O)CC(c2c(C)cc(C)cc2C)CC1=O (stereo unspecified) ?
no

Hi, do you know how CC(Oc1ccc(Cl)cc1Cl)C(=O)O (stereo unspecified) came out in this test?
no

Others:
Just curious, what result did CC(C)Oc1cc(-n2nc(C(C)(C)C)oc2=O)c(Cl)cc1Cl get here?
no

So what was the verdict on CNC(=O)ON=CC(C)(C)SC in this test?
no

Short answer needed: outcome of this test for C=CCC1=C(C)[C@@H](OC(=O)[C@@H]2[C@@H](C=C(C)C)C2(C)C)CC1=O ?
no

I would be grateful if you could indicate the recorded call for COC(=O)N(OC)c1ccccc1COc1ccn(-c2ccc(Cl)cc2)n1 .
no

Could you check what this test reported for Oc1ccccc1-c1ccccc1 ?
no

Each compound tested received a call. Report the one for CC1=C(C(=O)Nc2ccccc2)SCCO1 .
yes

# fetch the recorded call for CS/C(C)=N/OC(=O)N(C)SN(C)C(=O)O/N=C(\C)SC here
yes

Recorded call for CC(C)C1(C)N=C(c2nc3ccccc3cc2C(=O)O)NC1=O (stereo unspecified) ?
no

For CC(C)(C)c1ccc(CSc2cnn(C(C)(C)C)c(=O)c2Cl)cc1 , what call appears in the results of this test?
no

// return assay outcome for CCOP(=S)(OCC)SCn1c(=O)oc2cc(Cl)ccc21
no

Recorded test outcome, item CCOC(=O)C(Cl)Cc1cc(-n2nc(C)n(C(F)F)c2=O)c(F)cc1Cl (stereo unspecified)
no

Returns: the outcome recorded for CCOc1cc(Oc2ccc(C(F)(F)F)cc2Cl)ccc1[N+](=O)[O-] in this assay.
no

Record request — test call for COC(=O)c1ccccc1C(=O)OC
no

Please share the test call associated with COC(=O)C=C(C)OP(=O)(OC)OC .
no

Dear all, I need the recorded test outcome for C#CCOS(=O)OC1CCCCC1Oc1ccc(C(C)(C)C)cc1 (stereo unspecified) , thank you.
yes

What did this assay record as the result for CCCCC(CC)COC(=O)c1ccccc1C(=O)OCC(CC)CCCC (stereo unspecified) ?
no

Where do these numbers come from? They come from PubChem BioAssay (EPA / NIEHS).
